Assign koff to each entry below.
# System tested: T1, recombinant human CD63 extracellular loop 2 expressed with a C-terminal Myc-Myc-hexahistidine (human)
# T1 construct: also called hCD63 EC loop 2-MMH; human CD63 EC loop 2-MMH
# T1 sequence (chain, as listed by the source limits assumed): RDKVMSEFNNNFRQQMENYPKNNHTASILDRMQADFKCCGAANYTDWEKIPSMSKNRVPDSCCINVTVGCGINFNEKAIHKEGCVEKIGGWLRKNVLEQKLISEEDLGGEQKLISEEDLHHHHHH
# Assay info: SPR Biacore, mAb captured, 25C
Answers are plain numbers, in s⁻¹.

Some solved cases for reference:
H2M12395N (antibody, V domains shown, also called H2aM12395N) VH: QVQLQESGPRLVKPSETLSLTCIVSGGSISNFYWNWIRQSPGKGLEWIGYFFYTGTIDYNPSLKSRVTISLDTSKNQFSLNLRLLTAADAAVYYCARMGLGANAFDIWGHGTMVTVSS VL: EIVLTQSPGTLSLSPGERATLSCRASQHVSSNYLAWYQQKPGQAPRLLIYGGSSRATGIPDRFSGSGSGTDFTLTISRLEPADFAVFYCQQYGNSPWTFGQGTKVEMK; 0.00182
H1M12362N (antibody, V domains shown) VH: QVQLVESGGGLVKPGGSLRLSCAASGFIFSDYYINWIRQAPGKGLEWVSYTSSSGSTTYYEDSVKGRFTMSRDNARNLVYLQMNSLRAEDTAAYYCVRDLRYNDGLDVWGQGTTVTVSS VL: DILLTQSPSSLSASVGDRVTITCRASQSIRTYLNWYQQKPGRAPKLLVYAASSLQSGVPSRFSGSGSGTDFTLTISSLQPEDFATYFCQQSYDNPPITFGQGTRLAIK; 0.00144

Consider the additional binder presented here.
[in] Look up koff for this binder: H1M12386N (antibody, V domains shown) VH: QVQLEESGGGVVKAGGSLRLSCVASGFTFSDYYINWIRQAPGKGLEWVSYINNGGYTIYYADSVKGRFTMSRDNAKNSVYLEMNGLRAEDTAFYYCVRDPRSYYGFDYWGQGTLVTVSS VL: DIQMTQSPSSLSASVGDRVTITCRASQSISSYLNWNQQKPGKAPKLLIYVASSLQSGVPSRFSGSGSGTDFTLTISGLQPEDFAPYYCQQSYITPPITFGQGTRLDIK
[out] 0.000365
